- System: P-selectin (Homo sapiens)
- Sequence (P16109 whole entry): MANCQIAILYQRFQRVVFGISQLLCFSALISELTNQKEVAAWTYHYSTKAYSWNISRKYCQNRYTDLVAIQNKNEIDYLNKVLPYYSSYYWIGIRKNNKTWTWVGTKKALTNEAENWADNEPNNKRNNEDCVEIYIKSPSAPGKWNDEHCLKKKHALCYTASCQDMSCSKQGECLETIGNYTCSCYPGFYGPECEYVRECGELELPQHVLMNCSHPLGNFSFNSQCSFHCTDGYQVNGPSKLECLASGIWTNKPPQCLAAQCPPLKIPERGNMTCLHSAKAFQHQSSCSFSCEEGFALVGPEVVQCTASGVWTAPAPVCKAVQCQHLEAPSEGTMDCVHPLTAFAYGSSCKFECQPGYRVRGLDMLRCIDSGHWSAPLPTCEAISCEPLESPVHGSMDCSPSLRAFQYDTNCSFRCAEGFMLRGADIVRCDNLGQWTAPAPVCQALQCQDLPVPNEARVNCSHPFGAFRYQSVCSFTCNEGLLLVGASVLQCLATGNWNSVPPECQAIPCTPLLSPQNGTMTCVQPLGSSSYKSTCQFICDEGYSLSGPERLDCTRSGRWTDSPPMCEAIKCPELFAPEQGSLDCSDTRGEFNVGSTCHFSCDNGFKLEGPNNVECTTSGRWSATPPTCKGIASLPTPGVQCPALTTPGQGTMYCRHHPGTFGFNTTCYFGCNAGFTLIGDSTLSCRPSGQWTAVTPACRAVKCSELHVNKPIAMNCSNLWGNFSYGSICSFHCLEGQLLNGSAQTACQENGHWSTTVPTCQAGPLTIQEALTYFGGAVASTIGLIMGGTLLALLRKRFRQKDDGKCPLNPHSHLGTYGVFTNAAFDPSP
- Assay remarks: In vitro inhibitory concentration against Selectin P in a cell-free binding assay
pIC50: −log10 of the molar value.
Measured parameter: pIC50

Consider the reported pIC50 for these molecules:
Q) Checklist item: pIC50 tested on P-selectin (Homo sapiens), entry `CCCCCCCCCCCCC/C=C/[C@@H](O)[C@H](CO[C@@H]1O[C@@H](COS(=O)(=O)O)[C@@H](O)[C@H](O)[C@@H]1O)NC(=O)CCCCCCCCCCCCCCC` , value?
A) 4.92

Q) Checklist item: pIC50 tested on P-selectin (Homo sapiens), entry `CCCCCCCCCCCCC/C=C/[C@@H](O)[C@H](CO[C@@H]1O[C@@H](COS(=O)(=O)O)[C@@H](O)[C@H](O)[C@@H]1OS(=O)(=O)O)NC(=O)CCCCCCCCCCCCCCC` , value?
A) 5.92

Q) Checklist item: pIC50 tested on P-selectin (Homo sapiens), entry `CCCCCCCCCCCCC/C=C/[C@@H](O)[C@H](CO[C@@H]1O[C@@H](COS(=O)(=O)O)[C@@H](OS(=O)(=O)O)[C@H](O)[C@@H]1O)NC(=O)CCCCCCCCCCCCCCC` , value?
A) 5.77

Q) Checklist item: pIC50 tested on P-selectin (Homo sapiens), entry `CCCCCCCCCCCCC/C=C/[C@@H](O)[C@H](CO[C@@H]1O[C@@H](CO)[C@@H](O)[C@H](O)[C@@H]1OS(=O)(=O)O)NC(=O)CCCCCCCCCCCCCCC` , value?
A) 5.60

Q) Checklist item: pIC50 tested on P-selectin (Homo sapiens), entry `CCCCCCCCCCCCC/C=C/[C@@H](O)[C@H](CO[C@@H]1O[C@@H](CO)[C@@H](O)[C@H](OS(=O)(=O)O)[C@@H]1OS(=O)(=O)O)NC(=O)CCCCCCCCCCCCCCC` , value?
A) 7.00

Q) Checklist item: pIC50 tested on P-selectin (Homo sapiens), entry `CCCCCCCCCCCCC/C=C/[C@@H](OC(=O)c1ccccc1)[C@H](CO[C@@H]1O[C@@H](COS(=O)(=O)O)[C@@H](O)[C@H](O)[C@@H]1OS(=O)(=O)O)NC(=O)CCCCCCCCCCCCCCC` , value?
A) 6.05

(a) CCCCCCCCCCCCC/C=C/[C@@H](O)[C@H](CO[C@@H]1O[C@@H](CO)[C@@H](OS(=O)(=O)O)[C@H](O)[C@@H]1O)NC(=O)CCCCCCCCCCCCCCC
(b) CCCCCCCCCCCCC/C=C/[C@@H](OC(=O)c1ccccc1)[C@H](CO[C@@H]1O[C@@H](COS(=O)(=O)O)[C@@H](OC(C)=O)[C@H](OS(=O)(=O)O)[C@@H]1OC(=O)c1ccccc1)NC(=O)CCCCCCCCCCCCCCC
Q) # argmax over pIC50 for candidates a and b Mark your selection by writing its label.
A) b
(b: 5.89, a: 4.90)

(A) CCCCCCCCCCCCC/C=C/[C@@H](O)[C@H](CO[C@@H]1O[C@@H](COS(=O)(=O)O)[C@@H](O)[C@H](OS(=O)(=O)O)[C@@H]1O)NC(=O)CCCCCCCCCCCCCCC
(B) CCCCCCCCCCCCC/C=C/[C@@H](OC(=O)c1ccccc1)[C@H](CO[C@@H]1O[C@@H](CO)[C@@H](O)[C@H](OS(=O)(=O)O)[C@@H]1OS(=O)(=O)O)NC(=O)CCCCCCCCCCCCCCC
(C) CCCCCCCCCCCCC/C=C/[C@@H](O)[C@H](CO[C@@H]1O[C@@H](CO)[C@@H](O)[C@H](OS(=O)(=O)O)[C@@H]1O)NC(=O)CCCCCCCCCCCCCCC
Q) Number of molecules to sort: 3. Sort criterion: pIC50, ascending. Record the ranking as a list of labels in the requested order.
A) A, C, B
(A: 5.62, C: 6.22, B: 7.00)
